The reported measurements were obtained from patent US8946439B2.

- assayed-system: hP2X2/3H (Homo sapiens, UniProt P56373+Q9UBL9)
- Construct: expressed in transfected cells; host or cells: e.g. HEK293 or 1321N1
- Sequence (Q9UBL9 1-471): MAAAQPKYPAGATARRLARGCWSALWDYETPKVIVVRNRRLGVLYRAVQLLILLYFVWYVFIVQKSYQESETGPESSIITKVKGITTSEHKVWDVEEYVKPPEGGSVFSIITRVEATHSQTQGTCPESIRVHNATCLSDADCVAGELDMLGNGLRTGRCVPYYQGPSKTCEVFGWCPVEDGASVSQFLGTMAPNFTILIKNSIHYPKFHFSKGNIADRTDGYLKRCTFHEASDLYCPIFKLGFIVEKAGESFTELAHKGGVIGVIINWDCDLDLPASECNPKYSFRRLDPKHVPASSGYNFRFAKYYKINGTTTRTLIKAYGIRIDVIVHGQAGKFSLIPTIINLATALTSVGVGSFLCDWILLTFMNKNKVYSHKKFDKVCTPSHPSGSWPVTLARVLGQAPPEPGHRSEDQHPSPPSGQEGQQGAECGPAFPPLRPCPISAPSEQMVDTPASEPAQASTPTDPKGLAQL
- Sequence (P56373 1-397): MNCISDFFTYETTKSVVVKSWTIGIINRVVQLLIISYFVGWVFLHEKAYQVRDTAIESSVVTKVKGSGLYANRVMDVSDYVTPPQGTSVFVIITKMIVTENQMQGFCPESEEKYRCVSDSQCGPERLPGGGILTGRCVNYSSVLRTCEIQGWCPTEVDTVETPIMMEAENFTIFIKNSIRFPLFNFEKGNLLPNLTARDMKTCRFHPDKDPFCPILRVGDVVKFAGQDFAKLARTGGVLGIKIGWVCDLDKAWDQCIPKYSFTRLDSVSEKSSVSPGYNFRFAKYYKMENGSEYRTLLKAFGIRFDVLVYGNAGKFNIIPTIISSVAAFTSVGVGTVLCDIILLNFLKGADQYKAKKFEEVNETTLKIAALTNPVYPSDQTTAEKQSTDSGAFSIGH
- procedure-summary: Calcium uptake assay (P2X antagonist assay), P2X2/3 heteromer
- Type: cell-based
- measurement-parameters: calcium uptake assay, hP2X2/3H; read-out: IC50 hP2X2/3H (nM), Ca Influx
readout-name: IC50

compound: Cc1ccc(-c2cc(C(=O)NCc3ncc(C(F)(F)F)cc3Cl)cc(C(=O)N3CCCC3)c2)cc1 [Compound 74]
assayed-system: hP2X2/3H (Homo sapiens, UniProt P56373+Q9UBL9)
observed-value: < 100 nM

Data request: Read the entry Cc1ccc(-c2cc(C(=O)NC(CCO)c3ccc(C(F)(F)F)nc3)cc(C(=O)N3CCCC3)c2)cc1 (centres unmarked) [Compound 83] and write its reported IC50.
Data returned: 100 to 500 nM

Data request: Read the entry Cc1ccc(-c2cc(C(=O)N[C@@H](C)CN3CCOCC3)cc(C(=O)N3CCCC3)c2)cc1 [Compound 82] and write its reported IC50.
Data returned: 501 to 1000 nM

Data request: Read the entry CCCS(=O)(=O)c1cc(C(=O)NCc2ccc(C)nc2)cc(-c2ccc(C)cc2)c1 [Compound 56] and write its reported IC50.
Data returned: < 100 nM

Data request: Read the entry Cc1ncc(CNC(=O)c2cc(C(=O)N3CCCC3)cc(-c3ccc(F)cc3)c2)cn1 [Compound 38] and write its reported IC50.
Data returned: > 1000 nM

Data request: Read the entry Cc1ccc(-c2cc(S(=O)(=O)N3CCCC3)cc(C(=O)NCc3ccc(C)nc3)c2C)cc1 [Compound 68] and write its reported IC50.
Data returned: > 1000 nM

Data request: Read the entry Cc1ccc(-c2cc(C(=O)N[C@H](C)c3cnc(C)c(Cl)c3)cc(S(C)(=O)=O)c2)cc1 [Compound 149] and write its reported IC50.
Data returned: 100 to 500 nM

Data request: Read the entry Cc1ccc(-c2cc(C(=O)NCc3ccc(C)nc3)cc(C(=O)N3CCC(N4CCOCC4)C3)c2)cc1 (centres unmarked) [Compound 86] and write its reported IC50.
Data returned: 100 to 500 nM
